assay: Hepatocyte Stability Assay, rat hepatocytes; type: in vitro ADME; conditions: cryopreserved hepatocytes, read-out: Rat Heps CLint
measurement_type: CLint scaled at 1 μM

Sample answers from the record:
[
  {
    "compound": "COC(=O)Nc1cc(Oc2cnc3nc(Nc4cc5n(n4)CCC54CCC4)n(C)c3c2C#N)ccn1",
    "CLint scaled at 1 μM": "35 to 45 mL/min/kg"
  },
  {
    "compound": "CC(=O)Nc1cc(Oc2cnc3nc(Nc4cc(C(F)(F)F)cn(C)c4=O)n(C)c3c2Cl)c(F)cn1",
    "CLint scaled at 1 μM": "17 to 35 mL/min/kg"
  },
  {
    "compound": "CC(=O)Nc1cc(Oc2cnc3nc(Nc4cc5n(n4)CCOCC5(C)C)n(C)c3c2C#N)ccn1",
    "CLint scaled at 1 μM": "< 17 mL/min/kg"
  },
  {
    "compound": "COCCOC(=O)Nc1cc(Oc2cnc3nc(Nc4cc5n(n4)CCC54CCC4)n(C)c3c2C#N)ccn1",
    "CLint scaled at 1 μM": "17 to 35 mL/min/kg"
  },
  {
    "compound": "CCN1CCN(Cc2ccc(Nc3nc4ccc(Oc5ccnc(NC(C)=O)c5)cc4n3C)cc2C(F)(F)F)CC1 [Example R-1, reference compound]",
    "CLint scaled at 1 μM": "35 to 45 mL/min/kg"
  },
  {
    "compound": "Cn1c(Nc2cc3n(n2)CCC32CCC2)nc2ncc(Oc3ccnc(NC(=O)C4CC4)c3)c(C#N)c21",
    "CLint scaled at 1 μM": "< 17 mL/min/kg"
  },
  {
    "compound": "Cn1cc(C(F)(F)F)cc(Nc2nc3ncc(Oc4ccnc(NC(=O)N5CCC5)c4)c(C#N)c3n2C)c1=O",
    "CLint scaled at 1 μM": "17 to 35 mL/min/kg"
  },
  {
    "compound": "COCC(=O)Nc1cc(Oc2cnc3nc(Nc4cc(C(F)(F)F)cn(C)c4=O)n(C)c3c2C#N)ccn1",
    "CLint scaled at 1 μM": "17 to 35 mL/min/kg"
  }
]

Query compound follows.
q: Item Cn1cc(C(F)(F)F)cc(Nc2nc3ncc(Oc4ccnc(NC(=O)O[C@@H]5CCOC5)c4)c(C#N)c3n2C)c1=O : provide CLint scaled at 1 μM
a: 17 to 35 mL/min/kg

----------
biological target: JAK2 (JH1 domain-catalytic, Y1007F,Y1008F) kinase (Homo sapiens, UniProt O60674, Y1007F/Y1008F); construct: made in house; host or cells: transiently transfected HEK293 cells; assay: JAK2 Binding Assay (JAK2 JH1 Domain Binding Assay); details: JAK2 JH1 domain binding, qPCR detection; read-out: JAK2 Kd
Sequence (O60674 849-1124 Y1007F/Y1008F limits assumed): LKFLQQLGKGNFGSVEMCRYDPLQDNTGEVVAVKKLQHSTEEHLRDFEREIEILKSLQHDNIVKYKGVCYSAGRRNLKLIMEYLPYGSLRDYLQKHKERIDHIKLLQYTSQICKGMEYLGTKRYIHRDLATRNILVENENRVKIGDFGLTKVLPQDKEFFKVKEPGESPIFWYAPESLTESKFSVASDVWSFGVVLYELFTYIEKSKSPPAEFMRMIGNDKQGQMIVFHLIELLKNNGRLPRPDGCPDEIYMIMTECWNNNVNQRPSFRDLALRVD
measurement_type: Kd

Sample answers from the record:
[
  {
    "smiles_record": "Cn1cc(C(F)(F)F)cc(Nc2nc3ncc(Oc4ccnc(NC(=O)N5CCCC5)c4)c(C#N)c3n2C)c1=O",
    "Kd": "< 10 nM"
  },
  {
    "smiles_record": "[2H]C([2H])([2H])N(C(=O)Nc1cc(Oc2cnc3nc(Nc4cc(C(F)(F)F)cn(C)c4=O)n(C)c3c2C#N)ccn1)C([2H])([2H])[2H]",
    "Kd": "< 10 nM"
  },
  {
    "smiles_record": "COC(=O)Nc1cc(Oc2cnc3nc(Nc4cc5n(n4)CCN5C(C)(C)C)n(C)c3c2C#N)ccn1",
    "Kd": "< 10 nM"
  },
  {
    "smiles_record": "CO[C@@H]1CCN(C(=O)Nc2cc(Oc3cnc4nc(Nc5cc6n(n5)CCC65CCC5)n(C)c4c3C#N)ccn2)C1",
    "Kd": "< 10 nM"
  },
  {
    "smiles_record": "CC(=O)Nc1cc(Oc2cnc3nc(Nc4cc5n(n4)CCN5C(C)(C)C)n(C)c3c2C#N)ccn1",
    "Kd": "< 10 nM"
  },
  {
    "smiles_record": "Cn1c(Nc2cc3n(n2)CCCC3(F)F)nc2ncc(Oc3ccnc(NC(=O)O[C@H]4CCOC4)c3)c(C#N)c21",
    "Kd": "< 10 nM"
  },
  {
    "smiles_record": "CC(=O)Nc1cc(Oc2cnc3nc(Nc4cc5n(n4)CCN(C)C54CC4)n(C)c3c2C#N)ccn1",
    "Kd": "10 to 50 nM"
  },
  {
    "smiles_record": "COC(=O)Nc1cc(Oc2cnc3nc(Nc4cc5n(n4)CCN(C)C5=O)n(C)c3c2C#N)ccn1",
    "Kd": "50 to 1000 nM"
  }
]

q: Item Cn1cc(C(F)(F)F)cc(Nc2nc3ncc(Oc4ccnc(NC(=O)N5CCC5)c4)c(C#N)c3n2C)c1=O : provide Kd
a: < 10 nM

q: Item COC(=O)Nc1cc(Oc2cnc3nc(Nc4cc5n(n4)CCCC54CC4)n(C)c3c2C#N)ccn1 : provide Kd
a: < 10 nM

q: Item CN1CC(OC(=O)Nc2cc(Oc3cnc4nc(Nc5cc(C(F)(F)F)cn(C)c5=O)n(C)c4c3C#N)ccn2)C1 : provide Kd
a: 50 to 1000 nM

q: Item Cn1c(Nc2cc3n(n2)CCOC3(C)C)nc2ncc(Oc3ccnc(NC(=O)N4CCCC4)c3)c(C#N)c21 : provide Kd
a: < 10 nM

q: Item CN(C)CCOC(=O)Nc1cc(Oc2cnc3nc(Nc4cc(C(F)(F)F)cn(C)c4=O)n(C)c3c2Cl)ccn1 : provide Kd
a: < 10 nM

q: Item CN1CCn2nc(Nc3nc4ncc(Oc5ccnc(NC(=O)OC6COC6)c5)c(Cl)c4n3C)cc2C1=O : provide Kd
a: 1000 to 5000 nM
